Catalogue of pIC50 values
System: PLC/PRF/5 KSR2 OE (PLC cells overexpressing KSR2)
Experiment: Cell IC50 assay (CCK8 cell viability), PLC/PRF/5 KSR2 OE
Format: cell-based
Settings: Homo sapiens, PLC-PRF-5; hepatoma cells, 72 h incubation, CCK8; read-out: IC50 value of cell viability, PLC/PRF/5 KSR2 OE (PLC cells overexpressing KSR2)
Procedure: (1) Cell Preparation: Hepatoma cells (PLC/PRF/5, sourced from the Chinese Academy of Sciences; MHCC97H, sourced from this research institute) in good growth condition are prepared. The cells are trypsinized, diluted, and seeded into 96-well cell culture plates. 1,000-3,000 cells are added per well. […] (3) CCK8 Assay for Cell Viability: CCK8 is mixed with culture medium at a 1:10 ratio. […] After incubating for 2-4 h, the OD values are measured using a microplate reader. […]
Hey, just a heads up that pIC50 is the negative log base 10 of the concentration in molar.

Task: Answer with the recorded pIC50 of CN1CCN(C2CCN(CCCNC(=O)c3nn(C)c4c3COc3ccc(C#N)cc3-4)CC2)CC1 [Compound 82] only.
Result: 5.10

Task: Tell me pIC50 reported for CN1CCN(C2CCN(CCCNC(=O)c3nn(C)c4c3COc3cc(F)ccc3-4)CC2)CC1 [Compound 71]
Result: 5.10

Task: Hello, please tell me recorded pIC50 for this one: CN1CCN(C2CN(CCCNC(=O)c3nn(C)c4c3CSc3ccccc3-4)C2)CC1 [Compound 85]
Result: 4.60

Task: Output measured pIC50 for this item: Cn1nc(C(=O)NCCCN2CCN(C3CCCCC3)CC2)c2c1-c1ccccc1CC2 [Compound 17]
Result: 4.68

====

IC50 values for the molecules below.
system: PLC/PRF/5 KSR2 OE (PLC cells overexpressing KSR2); experiment: Cell IC50 assay (CCK8 cell viability), PLC/PRF/5 KSR2 OE; type: cell-based; settings: Homo sapiens, PLC-PRF-5; hepatoma cells, 72 h incubation, CCK8; read-out: IC50 value of cell viability, PLC/PRF/5 KSR2 OE (PLC cells overexpressing KSR2)
Hi! Could you send only the number? It should be in µM, unit omitted.

A selection of reference data follows.
> print(dat)
                                   molecule  experimental.value
1  CN1CCN(C2CCN(CCCNC(=O)c3nn(C)c4c3COc3cc(Cl)c(Br)cc3-4)CC2)CC1 [Compound 101]                   1
2  CN(C)C1CN(CCCNC(=O)c2nn(C)c3c2CSc2ccccc2-3)C1 [Compound 54]                   6
3  CCN1CCN(C2CN(CCCNC(=O)c3nn(C)c4c3CSc3cc(Cl)ccc3-4)C2)CC1 [Compound 109]                   7

Attention now shifts to the item below.
Task: Find the measured IC50 of CN1CCN(C2CN(CCCNC(=O)c3nn(C)c4c3CSc3cc(Cl)ccc3-4)C2)CC1 [Compound 97] with PLC/PRF/5 KSR2 OE (PLC cells overexpressing KSR2) as test system.
Result: 7

====

tested on: PLC/PRF/5 KSR2 OE (PLC cells overexpressing KSR2); assay: Cell IC50 assay (CCK8 cell viability), PLC/PRF/5 KSR2 OE; assay type: cell-based; conditions: Homo sapiens, PLC-PRF-5; hepatoma cells, 72 h incubation, CCK8; read-out: IC50 value of cell viability, PLC/PRF/5 KSR2 OE (PLC cells overexpressing KSR2)
List of log10 of IC50 values.
# log10 transformed; quantity=IC50; unit=µM

Worked examples, 8 compounds total:
> print(dat)
                                   compound  assay.endpoint  experimental.value
1  Cn1nc(C(=O)NCC(O)CN2CCN(c3ccccc3)CC2)c2c1-c1ccccc1SC2 (centres unmarked)   log10 of IC50                1.62
2  CN1CCN(C2CCN(CCCNC(=O)c3nn(C4COC4)c4c3CSc3ccccc3-4)CC2)CC1   log10 of IC50                1.34
3  CN1CCN(C2CN(CCCNC(=O)c3c4c(nn3C)-c3ccc(OC(F)(F)F)cc3OC4)C2)CC1   log10 of IC50                0.70
4  CCN1CCN(C2CCN(CCCNC(=O)c3nn(C)c4c3COc3cc(Cl)ccc3-4)CC2)CC1   log10 of IC50                0.30
5  Cn1nc(C(=O)NCCCN2CCN(c3ccccn3)CC2)c2c1-c1ccccc1SC2   log10 of IC50                1.60
6  CN(Cc1ccccc1)C1CCN(CCCNC(=O)c2nn(C)c3c2CSc2ccccc2-3)CC1   log10 of IC50                0.90
7  Cn1nc(C(=O)NCCCN2CCC(O)(c3ccccc3)CC2)c2c1-c1ccccc1SC2   log10 of IC50                1.23
8  Cn1nc(C(=O)NCCCN2CCC(N3CCN(CCO)CC3)CC2)c2c1-c1ccccc1SC2   log10 of IC50                1.30

Task: Please report log10 of IC50 with PLC/PRF/5 KSR2 OE (PLC cells overexpressing KSR2) for item `COCCN1CCN(C2CCN(CCCNC(=O)c3nn(C)c4c3CSc3ccccc3-4)CC2)CC1` .
Result: 1.28

Task: Enter measured log10 of IC50, system PLC/PRF/5 KSR2 OE (PLC cells overexpressing KSR2), for the compound shown: `Cn1nc(C(=O)NCCCN2CCN(c3ccncc3)CC2)c2c1-c1ccccc1SC2`
Result: 0.85

Task: Using PLC/PRF/5 KSR2 OE (PLC cells overexpressing KSR2) as the test system, report measured log10 of IC50 of `Cn1nc(C(=O)NCCCN2CCC(N3CCCC3)CC2)c2c1-c1ccccc1SC2` .
Result: 0.48

Task: Identify measured log10 of IC50 obtained with PLC/PRF/5 KSR2 OE (PLC cells overexpressing KSR2) for `Cn1nc(C(=O)NCCCN2CCC(NC(=O)C3CC3)CC2)c2c1-c1ccccc1SC2` .
Result: 0.30

Task: Give log10 of IC50 for this entry on PLC/PRF/5 KSR2 OE (PLC cells overexpressing KSR2): Cn1nc(C(=O)NCC2CC(N3CCC(N4CCCC4)CC3)C2)c2c1-c1ccccc1SC2 (centres unmarked)
Result: 0.00
